conditions: in isobutanol, 303.15 K
recorded.metric: solubility (mole fraction)

// `O=Cc1cc(C=O)cc(C=O)c1` : solubility (mole fraction) value = 0.000917

====

settings: in isopropanol, 283.15 K
recorded.metric: solubility (mole fraction)
Give the value as a plain number.

// `O=Cc1cc(C=O)cc(C=O)c1` : solubility (mole fraction) value = 0.000462

====

conditions: in 1,4-dioxane, 323.15 K
recorded.metric: solubility (mole fraction)
Give the value as a plain number.

// `O=Cc1cc(C=O)cc(C=O)c1` : solubility (mole fraction) value = 0.041

====

conditions: in 1,4-dioxane, 293.15 K
recorded.metric: solubility (mole fraction)

// `O=Cc1cc(C=O)cc(C=O)c1` : solubility (mole fraction) value = 0.0164

====

conditions: in acetonitrile, 313.15 K
recorded.metric: solubility (mole fraction)

// `O=Cc1cc(C=O)cc(C=O)c1` : solubility (mole fraction) value = 0.0137

====

conditions: in n-propanol, 288.15 K
recorded.metric: solubility (mole fraction)
Give the value as a plain number.

// `O=Cc1cc(C=O)cc(C=O)c1` : solubility (mole fraction) value = 0.00104

====

conditions: in isopropanol, 293.15 K
recorded.metric: solubility (mole fraction)
Give the value as a plain number.

// `O=Cc1cc(C=O)cc(C=O)c1` : solubility (mole fraction) value = 0.000605

====

conditions: in water, 298.15 K
recorded.metric: solubility (mole fraction)
Give the value as a plain number.

// `O=Cc1cc(C=O)cc(C=O)c1` : solubility (mole fraction) value = 0.000108

====

details: in isopropanol, 303.15 K
recorded.metric: solubility (mole fraction)
Give the value as a plain number.

// `O=Cc1cc(C=O)cc(C=O)c1` : solubility (mole fraction) value = 0.000803

====

conditions: in n-propanol, 318.15 K
recorded.metric: solubility (mole fraction)

// `O=Cc1cc(C=O)cc(C=O)c1` : solubility (mole fraction) value = 0.00347

====

details: in isobutanol, 313.15 K
recorded.metric: solubility (mole fraction)
Give the value as a plain number.

// `O=Cc1cc(C=O)cc(C=O)c1` : solubility (mole fraction) value = 0.00277

====

details: in acetone, 303.15 K
recorded.metric: solubility (mole fraction)
Give the value as a plain number.

// `O=Cc1cc(C=O)cc(C=O)c1` : solubility (mole fraction) value = 0.0191

====

details: in isopropanol, 323.15 K
recorded.metric: solubility (mole fraction)
Give the value as a plain number.

// `O=Cc1cc(C=O)cc(C=O)c1` : solubility (mole fraction) value = 0.00363
